molecular target: glucose-6-phosphate dehydrogenase-6-phosphogluconolactonase (Plasmodium falciparum 3D7); test: concentration-dependent PfGluPho enzyme inhibition – biochemical, fluorescence intensity, dose response (AID 504765); conditions: Recombinant PfG6PD enzyme, fluorescence intensity (NADPH)
Known pIC50 of a selection of compounds
The read-out pIC50 is expressed as -log10 of concentration in moles per litre.

Solved entries (count: 3):
Cc1cccc(C(=O)Nc2nnc(S(=O)(=O)N3CCOCC3)s2)c1 : 5.13
CC(=NNC(=S)N1CCN(c2ccccn2)CC1)c1nccs1 : 5.25
O=C(CBr)c1ccc([N+](=O)[O-])c(CS(=O)(=O)c2ccc(Cl)cc2)c1 : 4.98

Item [O-]/[N+](=C\c1ccncc1)c1ccccc1 has what recorded pIC50?
5.02

Do the same for CC1(C)CN(c2ccccc2)N(C(=O)c2ccc(C#N)cc2)C1=O please
5.03

Do the same for COC1=C(N)C(=O)c2nc(C)ccc2C1=O please
5.20
